Origin of measurements: BigSolDB 2.1

cond: in isopropanol, 313.15 K
measurement.kind: solubility (mole fraction)

So for N=C(N)NC(N)=S , the logged solubility (mole fraction) turned out to be 0.00559
